System: SH-SY5Y cells
Conditions: PKIS2 primary screening, DQ Red BSA spot count
Result Type: DQ Spot
# output: bare number, no unit

Per the reported SH-SY5Y cells data, Cl.Cl.NCC(NCc1ccc(-c2ccnc3[nH]ccc23)s1)c1ccccc1 (centres unmarked) [UNC10225471A] has DQ Spot of 94.95

Per the reported SH-SY5Y cells data, NC(=O)c1cccc(Nc2nccc(Nc3ccc(Oc4cccc(Cl)c4)c(Cl)c3)n2)c1 has DQ Spot of 103.30

Per the reported SH-SY5Y cells data, Cl.Oc1cc(-c2nc(-c3ccccc3)[nH]c2-c2ccncc2)ccc1Cl [UNC10225128B] has DQ Spot of 92.51

Per the reported SH-SY5Y cells data, O=C(NCCCN1CCOCC1)c1cccc(Nc2nccc(Nc3ccc(Oc4ccccc4)cc3)n2)c1 has DQ Spot of 80.91

Per the reported SH-SY5Y cells data, Cn1cncc1C(=O)NC1CCN(c2ccnc(Nc3ccc(F)cc3)n2)C1 (centres unmarked) has DQ Spot of 97.80

Per the reported SH-SY5Y cells data, COc1cc2nccc(Nc3cccc(Oc4ccccc4)c3)c2cc1OC.Cl [UNC10225170A] has DQ Spot of 79.85

Per the reported SH-SY5Y cells data, Cc1cccc2c(-c3ccncc3)c(-c3ccc(F)cc3)nn12.Cl [UNC10225316A] has DQ Spot of 91.98

Per the reported SH-SY5Y cells data, O=C(Nc1ccccc1F)NC1CCN(c2ccnc(Nc3ccc(F)cc3)n2)CC1 has DQ Spot of 97.06

Per the reported SH-SY5Y cells data, Nc1nc(-c2ccccc2F)c(-c2ccnc3ccccc23)s1 [UNC10225301A] has DQ Spot of 87.10

Per the reported SH-SY5Y cells data, CS(=O)(=O)CCNCc1nc(-c2ccc3ncnc(Nc4ccc(OCc5cccc(F)c5)c(Cl)c4)c3c2)cs1.Cl [UNC10225091A] has DQ Spot of 82.01

Per the reported SH-SY5Y cells data, Cl.Cn1ccc(-c2cccc(Nc3ccnc4cc(-c5nccs5)ccc34)c2)n1 [UNC10225141A] has DQ Spot of 66.27

Per the reported SH-SY5Y cells data, CC(C)S(=O)(=O)N1CCN(Cc2ccc3c(c2)nc(NC(=O)c2ccsc2)n3C[C@H](O)c2ccccc2)CC1 has DQ Spot of 98.01

Per the reported SH-SY5Y cells data, COc1ccc(Nc2nccc(NCCNC(=O)Nc3ccccc3F)n2)cc1 has DQ Spot of 125.52

Per the reported SH-SY5Y cells data, COc1cc(Nc2nccc(N3CCC(NC(=O)Nc4ccc5c(c4)OCO5)C3)n2)cc(OC)c1OC (centres unmarked) has DQ Spot of 78.55

Per the reported SH-SY5Y cells data, COC(=O)c1cccc(NC(=O)NC2CCN(c3ccnc(Nc4ccc(OC)cc4)n3)C2)c1 (centres unmarked) has DQ Spot of 97.45

Per the reported SH-SY5Y cells data, CC(=O)c1cccc(NC(=O)NC2CCN(c3ccnc(Nc4ccc(F)cc4)n3)C2)c1 (centres unmarked) has DQ Spot of 115.02

Per the reported SH-SY5Y cells data, COC(=O)c1cccc(NC(=O)NCCNc2ccnc(Nc3ccc(F)cc3)n2)c1 has DQ Spot of 95.44

====

A set of compounds tested on SH-SY5Y cells, with measured DQ Spot:

Lab note: measured DQ Spot of CSc1ccc(NC2=C(c3ccc(Cl)cc3)C(=O)NC2=O)cc1 [UNC10225216A] was 93.29

Lab note: measured DQ Spot of O=C(Nc1n[nH]c2cc(-c3cccs3)ccc12)C1CC1 [SB-731284] was 107.15

Lab note: measured DQ Spot of Nc1n[nH]c2cnc(-c3ccccc3)cc12 [SB-642124] was 98.20

Lab note: measured DQ Spot of O=C(Nc1n[nH]c2nc(-c3ccccc3)c(Cl)cc12)C1CC1 [SB-734909] was 126.24

Lab note: measured DQ Spot of c1ccc(-c2n[nH]cc2-c2ccnc3ccccc23)nc1 [UNC10225289A] was 82.58

Lab note: measured DQ Spot of Nc1n[nH]c2nnc(-c3ccccc3)c(-c3ccccc3)c12 [UNC10225185A] was 91.84

Lab note: measured DQ Spot of Cc1ccc(C(=O)NC2CCCC2)cc1-c1ccc(C(=O)NCC2CC2)cc1 [UNC10225270A] was 81.23

====

Tested on: endogenous TFE3
Experiment: TFE3 nuclear translocation, immunocytochemistry high-content imaging
Format: cell-based
Details: PKIS2 primary screening
Quick rule: TFE3 % of at least 10% means 1, below that means -1.

Ask | Please indicate if the recorded TFE3 % for Clc1ccc(-c2nn3ncccc3c2-c2ccnc(Nc3ccc4c(c3)OCCO4)n2)cc1 [UNC10225358A] meets or exceeds 10%.
Reply | 1

Ask | Please indicate if the recorded TFE3 % for CC(C)c1cc(-c2ccc3c(N)n[nH]c3c2)nc(N)n1 meets or exceeds 10%.
Reply | 1

Ask | Please indicate if the recorded TFE3 % for COc1cc2c(Nc3ccc(NC(=O)c4ccccc4)cc3)ncnc2cc1OCCCN1CCOCC1 [UNC10225250A] meets or exceeds 10%.
Reply | -1

Ask | Please indicate if the recorded TFE3 % for O=C(NCCNc1ccnc(Nc2ccc(F)cc2)n1)Nc1ccc2c(c1)OCO2 meets or exceeds 10%.
Reply | 1

Ask | Please indicate if the recorded TFE3 % for CC(C)Oc1ccc2c(-c3ccnc(Nc4ccc(N5CCN(C)CC5)cc4)n3)cnn2n1 [UNC10225414A] meets or exceeds 10%.
Reply | -1

Ask | Please indicate if the recorded TFE3 % for COc1cc(Nc2nccc(N3CCC(NC(=O)Nc4cccc(C(C)=O)c4)C3)n2)cc(OC)c1OC (centres unmarked) meets or exceeds 10%.
Reply | 1

Ask | Please indicate if the recorded TFE3 % for CCn1c(-c2nonc2N)nc2cncc(CNC3CCNCC3)c21.Cl [UNC10225211A] meets or exceeds 10%.
Reply | 1

Ask | Please indicate if the recorded TFE3 % for COc1ccc(Nc2nccc(N3CCC(NC(=O)c4cccc(NC(C)=O)c4)C3)n2)cc1 (centres unmarked) meets or exceeds 10%.
Reply | -1

====

Exercise: state measured AK for each of the molecules provided.
Test system: SH-SY5Y cells
Test: AK (adenylate kinase) release ToxiLight cytotoxicity assay; note: reference of the scale not given here
Settings: PKIS2 primary screening
# output: bare number, no unit

Lab note: measured AK of COc1cccc(-c2nc(-c3ccccc3)[nH]c2-c2ccncc2)c1 [UNC10225025A] was 113.94

Lab note: measured AK of CN1CCN(CCCNc2nccc(-c3c(-c4ccc(F)cc4)nn4cc(C(N)=O)ccc34)n2)CC1 [UNC10225188A] was 105.02

Lab note: measured AK of CC(C)c1nc(-c2ccc(F)c(NS(=O)(=O)c3c(F)cccc3F)c2)c(-c2ccnc(Nc3ccc(N4CCOCC4)nc3)n2)s1 [UNC10225089A] was 110.72

Lab note: measured AK of Cc1cccc(-c2nc(Nc3ccc4nn[nH]c4c3)c3ccccc3n2)n1 was 54.27

Lab note: measured AK of COc1ccc(Nc2nccc(NCCNC(=O)c3cc4ccccc4s3)n2)cc1 was 100.12

Lab note: measured AK of O=C(NCCNc1ccnc(Nc2ccc(F)cc2)n1)Nc1ccc2c(c1)OCO2 was 105.11

Lab note: measured AK of Cc1nn2c(=O)cc(N3CCOCC3)nc2n1Cc1cccc(Cl)c1Cl [UNC10225178A] was 116.91

Lab note: measured AK of CN(C)c1cc(-c2ccc3c(N)n[nH]c3c2)nc(N)n1 was 83.85

====

System: endogenous TFE3
Assay: TFE3 nuclear translocation, immunocytochemistry high-content imaging
Type: cell-based
Conditions: PKIS2 primary screening
Result Type: TFE3 % (%)
Express your answer in %, writing the number without its unit.

Lab note: measured TFE3 % of COc1cc2ncn(-c3cc(OCC4CCCO4)c(C(N)=O)s3)c2cc1OC (stereo not shown) [UNC10225372A] was 10.50

Lab note: measured TFE3 % of COc1ccc(CNC(=O)NC2CCN(c3ccnc(Nc4ccc(F)cc4)n3)C2)cc1 (stereo not shown) was 11.64

Lab note: measured TFE3 % of COc1cccc(C2=C(N(C)c3ccccc3)C(=O)NC2=O)c1 [UNC10225293A] was 13.51

Lab note: measured TFE3 % of Cc1occc1-c1nc(N)c(OC[C@@H](N)Cc2c[nH]c3ccccc23)cc1-c1cc2c(C)n[nH]c2cn1 [UNC10225217A] was 15.99

====

Test system: SH-SY5Y cells
Experiment: Nuclear count from microscopy images (cellular growth and toxicity); note: reference of the scale not given here
Conditions: PKIS2 primary screening
Exercise: state measured Nuclear Count for each of the molecules provided.
# output: bare number, no unit

Lab note: measured Nuclear Count of COC(=O)Nc1nc2ccc(Oc3ccc(NC(=O)Nc4cc(C(F)(F)F)ccc4F)cc3)cc2[nH]1 was 81.29

Lab note: measured Nuclear Count of O=C(NCCNc1ccnc(Nc2ccc(F)cc2)n1)Nc1ccc2c(c1)OCO2 was 67.71

Lab note: measured Nuclear Count of CC(=O)Nc1ccc(COc2ccc(Nc3ccnc4cc(-c5ccccn5)ccc34)cc2)cc1.Cl [UNC10225390A] was 89.28

Lab note: measured Nuclear Count of NS(=O)(=O)c1cccc(-c2ccc3ncc(N4CCOCC4)nc3c2)c1 [UNC10225400A] was 118.72

Lab note: measured Nuclear Count of Fc1cccc(COc2ccc(Nc3ncnc4nn5ccccc5c34)cc2Cl)c1 [UNC10225319A] was 77.83

Lab note: measured Nuclear Count of Cc1ccc(C)c(NC(=O)Nc2ccc(C)c(-c3ccc(C(=O)Nc4ccncc4)cc3)c2)c1 [UNC10225228A] was 105.64

Lab note: measured Nuclear Count of COc1cc(Nc2nccc(-c3c(-c4cccc(NC(=O)c5c(F)cccc5F)c4)nn4ccccc34)n2)cc(OC)c1OC [UNC10225318A] was 94.38

Lab note: measured Nuclear Count of COC(=O)c1cccc(NC(=O)NC2CCN(c3ccnc(Nc4ccc(OC)cc4)n3)C2)c1 (centres unmarked) was 105.57
